experiment summary: in vitro
setup conditions: human, microsomes, t (1 / 2)
measurement type: half-life (min)

For orientation, consider the following solved cases.
CC(=O)N(Cc1c[nH]cn1)c1ccc(-c2nc3ccccc3s2)cc1
123
Cc1ccc(-n2ccnc2)c(NC(=O)c2cnc(-c3ccccc3)s2)c1
16
CN(CC(O)COc1ccc2cc(Br)ccc2c1)C1CCCCC1 (centres undefined)
132
Cc1ccc(-n2ccnc2)c(NC(=O)c2cnc(-c3ccccc3)nc2)c1
19
CCOC(=O)c1ccc(-n2ccnc2)c(NC(=O)c2cnc(-c3ccccc3)nc2)c1
160

(I) O=C(Nc1ccccc1-n1ccnc1)c1cnc(-c2ccccc2)nc1
(II) CCN(Cc1cccnc1)c1cncc(-c2nc3ccccc3s2)c1
(III) CC(C)Cc1ccc(-n2ccnc2)c(NC(=O)c2cnc(-c3ccccc3)s2)c1
(IV) O=c1c2ccccc2nc(-c2ccc(-c3ccccc3)cc2)n1Cc1cccnc1
Ascending by half-life, please. Reply: labels, ordered per the request.
II, III, IV, I
(II: 4.2 min, III: 11 min, IV: 36 min, I: 99 min)

(1) CO/N=C(\C)c1ccc(-n2ccnc2)c(NC(=O)c2cnc(-c3ccccn3)s2)c1
(2) CCN(Cc1cccnc1)c1cccc(-c2nc3ccccc3s2)c1
Lowest half-life? choose 1 or 2 Write down the label of the entry you select.
2

(P) O=C(NCCc1cnc[nH]1)c1ccc2cc(Br)ccc2c1
(Q) CCS(=O)(=O)N(Cc1cccnc1)c1cncc(-c2nc3ccccc3s2)c1
(R) CCS(=O)(=O)N(Cc1cccnc1)c1cccc(-c2nc3ccccc3s2)c1
Ordering criterion: half-life; begin with the maximum. Put the labels in the requested order and write them down.
P, R, Q

(a) CCN(Cc1cnc[nH]1)c1cc(F)cc(-c2nc3ccccc3s2)c1
(b) CCN(c1ccccc1)S(=O)(=O)c1ccc(Cl)c(NC(=O)CNC2CCCN(C)C2)c1.O=CO (centres undefined)
(c) N#Cc1ccc(-n2ccnc2)c(NC(=O)c2cnc(-c3ccccc3)s2)c1
Sort low-to-high on half-life, please. Dear reader, please state the labels in the requested order.
a, b, c
